biological target: Opioid receptors; mu & kappa (Homo sapiens) (UniProt P41145+P35372); test: Relative affinity for human opioid receptor mu1 and kappa1; assay type: protein assay
Sequence (P35372 whole entry, looked up): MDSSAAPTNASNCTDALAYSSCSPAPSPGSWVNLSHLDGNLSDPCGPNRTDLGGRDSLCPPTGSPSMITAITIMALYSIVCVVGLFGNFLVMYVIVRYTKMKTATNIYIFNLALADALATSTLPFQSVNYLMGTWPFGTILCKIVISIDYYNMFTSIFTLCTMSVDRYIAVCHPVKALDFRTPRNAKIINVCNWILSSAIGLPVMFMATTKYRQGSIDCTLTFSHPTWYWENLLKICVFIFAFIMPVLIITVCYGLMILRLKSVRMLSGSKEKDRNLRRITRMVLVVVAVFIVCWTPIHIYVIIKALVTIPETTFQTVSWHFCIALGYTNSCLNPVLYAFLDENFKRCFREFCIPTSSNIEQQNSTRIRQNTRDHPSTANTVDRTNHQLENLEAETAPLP
Sequence (P41145 whole entry, looked up): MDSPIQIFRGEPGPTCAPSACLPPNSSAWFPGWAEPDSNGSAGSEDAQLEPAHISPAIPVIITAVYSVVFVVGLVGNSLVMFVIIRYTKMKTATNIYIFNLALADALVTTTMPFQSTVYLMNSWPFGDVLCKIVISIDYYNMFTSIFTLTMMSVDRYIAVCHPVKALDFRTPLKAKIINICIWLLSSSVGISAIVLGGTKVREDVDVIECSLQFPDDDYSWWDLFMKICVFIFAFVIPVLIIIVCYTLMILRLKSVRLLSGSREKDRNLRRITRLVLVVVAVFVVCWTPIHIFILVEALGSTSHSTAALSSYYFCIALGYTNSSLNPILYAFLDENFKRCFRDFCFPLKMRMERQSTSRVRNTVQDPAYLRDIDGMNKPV
readoutKind: Selectivity
Answers are plain numbers.

COC(=O)[C@@H]1C[C@H](OC(=O)Nc2ccccc2)C(=O)[C@H]2[C@@]1(C)CC[C@H]1C(=O)O[C@H](c3ccoc3)C[C@]21C | 0.2

# context switch: different molecule, same Selectivity
Value of Selectivity reported for the molecule COC(=O)[C@@H]1C[C@H](OC(=O)c2ccccc2)C(=O)[C@H]2[C@@]1(C)CC[C@H]1C(=O)O[C@H](c3ccoc3)C[C@]21C is 0.13

====

Ki, UniProt:P35372, per-entry values.

COC(=O)C(=O)O[C@H]1C[C@@H](C(=O)OC)[C@]2(C)CC[C@H]3C(=O)O[C@H](c4ccoc4)C[C@]3(C)[C@H]2C1=O | > 10 µM
COC(=O)[C@@H]1C[C@H](O[Si](C)(C)C)C(=O)[C@H]2[C@@]1(C)CC[C@H]1C(=O)O[C@H](c3ccoc3)C[C@]21C | > 10 µM

# input for lookup
Reported Ki of COC(=O)[C@@H]1C[C@H](OC(C)=O)[C@H](OC(C)=O)[C@H]2[C@@]1(C)CC[C@H]1C(=O)O[C@H](c3ccoc3)C[C@]21C : > 10 µM
